Let's look at some compounds and their measured IC50.
System: BT474 and HN5 tumor cell lines
Assay: Methylene blue growth inhibition assay (cellular Method A)
Type: cell-based, Human
Settings: Homo sapiens, BT-474, 72 h, 3 days, read-out: Activity (Method): growth inhibition IC50 class
measurement.type: IC50

                                    molecule       result
 0  Cc1ccc(Nc2nccc(-c3c(-c4cccc(NC(=O)c5cc(F)ccc5F)c4)nn4ccccc34)n2)cc1S(N)(=O)=O  0.1 to 1 µM
 1  CN1CCC[C@H]1COc1ccc(Nc2nccc(-c3c(-c4cccc(NC(=O)c5c(F)cccc5F)c4)nn4ccccc34)n2)cc1F     < 0.1 µM
 2  COc1ccc(Nc2nccc(-c3c(-c4cccc(NC(=O)c5c(F)cccc5F)c4)nn4ccccc34)n2)cc1N1CCNCC1     < 0.1 µM
 3  COc1cc(Nc2nccc(-c3c(-c4cccc(NC(=O)c5c(F)cccc5F)c4)nn4ccccc34)n2)cc(OC)c1OC  0.1 to 1 µM
 4  CN(C)CCOc1ccc(Nc2nccc(-c3c(-c4cccc(NC(=O)c5c(F)cccc5F)c4)nn4ccccc34)n2)cc1     < 0.1 µM
 5  O=C(Nc1cccc(-c2nn3ccccc3c2-c2ccnc(Nc3ccc4c(c3)OCCO4)n2)c1)c1ccccc1     < 0.1 µM
 6  O=C1COc2cc(Nc3nccc(-c4c(-c5cccc(NC(=O)c6c(F)cccc6F)c5)nn5ccccc45)n3)ccc2N1     < 0.1 µM
 7  O=C(Nc1cccc(-c2nn3ccccc3c2-c2ccnc(Nc3cccc(C(F)(F)F)c3)n2)c1)c1c(F)cccc1F  0.1 to 1 µM
 8  COc1ccc(-c2nn3ccccc3c2-c2ccnc(Nc3cccc(CN(C)C)c3)n2)cc1NC(=O)c1c(F)cccc1F       > 1 µM
 9  CCS(=O)(=O)c1ccc(OC)c(Nc2nccc(-c3c(-c4cccc(NC(=O)c5c(F)cccc5F)c4)nn4ccccc34)n2)c1  0.1 to 1 µM
10  O=C(Nc1cccc(-c2nn3ccccc3c2-c2ccnc(Nc3ccccc3)n2)c1)c1cccnc1  0.1 to 1 µM
11  COCCOc1ccc(Nc2nccc(-c3c(-c4cccc(NC(=O)c5c(F)cccc5F)c4)nn4ccccc34)n2)cc1Cl     < 0.1 µM
12  O=C(Nc1cccc(-c2nn3ccccc3c2-c2ccnc(Nc3ccc(OCCN4CCCCC4)c(F)c3)n2)c1)c1c(F)cccc1F     < 0.1 µM
13  COc1ccc(-c2nn3ccccc3c2-c2ccnc(Nc3ccc4c(c3)CNCC4)n2)cc1NC(=O)c1c(F)cccc1F       > 1 µM

----------
System: BT474 and HN5 tumor cell lines
Assay: Methylene blue growth inhibition assay (cellular Method A)
Format: cell-based, Human
Conditions: Homo sapiens, BT-474, 72 h, 3 days, read-out: Activity (Method): growth inhibition IC50 class
measurement.type: IC50

compound	result
Cc1c(F)cccc1C(=O)Nc1cccc(-c2nn3ccccc3c2-c2ccnc(Nc3cccc(F)c3)n2)c1	100 to 1000 nM
O=C(Nc1cccc(-c2nn3ccccc3c2-c2ccnc(Nc3cccc(F)c3)n2)c1)c1cccc(F)c1	100 to 1000 nM
O=C(Nc1cccc(-c2nn3c(C(F)(F)F)cccc3c2-c2ccnc(Nc3ccccc3)n2)c1)c1c(F)cccc1F	100 to 1000 nM
O=C(Nc1cccc(-c2nn3ccccc3c2-c2ccnc(Nc3cccc(OCCN4CCOCC4)c3)n2)c1)c1c(F)cccc1F	< 100 nM
O=C(Nc1cccc(-c2nn3ccccc3c2-c2ccnc(Nc3cccc(N4CCCC4=O)c3)n2)c1)c1cc(F)ccc1F	100 to 1000 nM
O=C(Nc1cccc(-c2nn3ccccc3c2-c2ccnc(Nc3cccc(S(=O)(=O)CCO)c3)n2)c1)c1c(F)cccc1F	< 100 nM
CC(c1cccc(Nc2nccc(-c3c(-c4cccc(NC(=O)c5c(F)cccc5F)c4)nn4ccccc34)n2)c1)S(C)(=O)=O (single isomer, unassigned) [Example 123]	< 100 nM
Cc1nc2cc(Nc3nccc(-c4c(-c5cccc(NC(=O)c6c(F)cccc6F)c5)nn5ccccc45)n3)ccc2s1	< 100 nM
COc1ccc(Nc2nccc(-c3c(-c4cccc(NC(=O)c5c(F)cccc5F)c4)nn4c(C(F)(F)F)cccc34)n2)cc1F	100 to 1000 nM
CCN(CC)CCCOc1ccc(Nc2nccc(-c3c(-c4cccc(NC(=O)c5c(F)cccc5F)c4)nn4ccccc34)n2)cc1F	< 100 nM
CN(C)CCCOc1cccc(Nc2nccc(-c3c(-c4cccc(NC(=O)c5c(F)cccc5F)c4)nn4ccccc34)n2)c1	< 100 nM
Cc1cccc(C(=O)Nc2cccc(-c3nn4ccccc4c3-c3ccnc(Nc4cccc(F)c4)n3)c2)c1Cl	100 to 1000 nM
CN(C)CCCc1ccc(Nc2nccc(-c3c(-c4cccc(NC(=O)c5c(F)cccc5F)c4)nn4ccccc34)n2)cc1	< 100 nM
COc1ccc(Nc2nccc(-c3c(-c4cccc(NC(=O)c5c(F)cccc5F)c4)nn4ccccc34)n2)cc1F	< 100 nM

----------
Tested on: BT474 and HN5 tumor cell lines
Experiment: Methylene blue growth inhibition assay (cellular Method A)
Assay type: cell-based, Human
Settings: Homo sapiens, BT-474, 72 h, 3 days, read-out: Activity (Method): growth inhibition IC50 class
measurement.type: IC50

In [3]: df
Out[3]:
                                   molecule          result
0  C=CCN(C)CCOc1cccc(Nc2nccc(-c3c(-c4cccc(NC(=O)c5c(F)cccc5F)c4)nn4ccccc34)n2)c1  100 to 1000 nM
1  O=C(Nc1cccc(-c2nn3ccccc3c2-c2ccnc(Nc3ccccc3)n2)c1)c1cc(F)ccc1F  100 to 1000 nM
2  COc1ccc(Nc2nccc(-c3c(-c4cccc(NC(=O)c5c(F)cccc5F)c4)nn4ccccc34)n2)cc1OCCN(C)C        < 100 nM
3  COc1ccc(Nc2nccc(-c3c(-c4cccc(NC(=O)c5c(F)cccc5F)c4)nn4ccccc34)n2)cc1Cl        < 100 nM
4  NS(=O)(=O)c1cccc(Nc2nccc(-c3c(-c4cccc(NC(=O)c5c(F)cccc5F)c4)nn4ccccc34)n2)c1        < 100 nM
5  CS(=O)(=O)Cc1ccc(Nc2nccc(-c3c(-c4cccc(NC(=O)c5c(F)cccc5F)c4)nn4ccccc34)n2)cc1        < 100 nM
6  Cc1nc2ccc(Nc3nccc(-c4c(-c5cccc(NC(=O)c6c(F)cccc6F)c5)nn5ccccc45)n3)cc2nc1C  100 to 1000 nM

----------
Test system: BT474 and HN5 tumor cell lines
Experiment: Methylene blue growth inhibition assay (cellular Method A)
Format: cell-based, Human
Details: Homo sapiens, BT-474, 72 h, 3 days, read-out: Activity (Method): growth inhibition IC50 class
measurement.type: IC50

In [3]: df
Out[3]:
                                    molecule          result
 0  O=C(Nc1cccc(-c2nn3ccccc3c2-c2ccnc(Nc3ccccc3)n2)c1)c1ccc(Cl)cc1       > 1000 nM
 1  CN(C)CCOc1cccc(Nc2nccc(-c3c(-c4cccc(NC(=O)c5c(F)cccc5F)c4)nn4ccccc34)n2)c1        < 100 nM
 2  COc1ccc(Nc2nccc(-c3c(-c4cccc(NC(=O)c5c(F)cccc5F)c4)nn4ccccc34)n2)cc1O        < 100 nM
 3  O=C(Nc1cccc(-c2nn3ccccc3c2-c2ccnc(Nc3ccc(OCCCS(=O)(=O)O)c(Cl)c3)n2)c1)c1c(F)cccc1F       > 1000 nM
 4  O=C(Nc1cccc(-c2nn3ccccc3c2-c2ccnc(Nc3ccccc3)n2)c1)c1ccccn1  100 to 1000 nM
 5  CN(CCCOc1ccc(N)cc1F)c1nccc(-c2c(-c3cccc(NC(=O)c4c(F)cccc4F)c3)nn3ccccc23)n1       > 1000 nM
 6  O=C1COc2ccc(Nc3nccc(-c4c(-c5cccc(NC(=O)c6c(F)cccc6F)c5)nn5ccccc45)n3)cc2N1        < 100 nM
 7  Cc1cccc2c(-c3ccnc(Nc4cccc(F)c4)n3)c(-c3cccc(NC(=O)c4c(F)cccc4F)c3)nn12  100 to 1000 nM
 8  S=C(Nc1cccc(-c2nn3ccccc3c2-c2ccnc(Nc3ccc4c(c3)OCCO4)n2)c1)c1ccccc1Cl  100 to 1000 nM
 9  O=C(Nc1cccc(-c2nn3ccccc3c2-c2ccnc(Nc3cccc(F)c3)n2)c1)c1ccsc1  100 to 1000 nM
10  O=C(Nc1cc(-c2nn3ccccc3c2-c2ccnc(Nc3ccc4c(c3)CNCC4)n2)ccc1F)c1c(F)cccc1F        < 100 nM
11  O=C(Nc1cccc(-c2nn3ccccc3c2-c2ccnc(Nc3ccc(O)c(Cl)c3)n2)c1)c1c(F)cccc1F        < 100 nM
12  CN1CCN(CCOc2ccc(Nc3nccc(-c4c(-c5cccc(NC(=O)c6c(F)cccc6F)c5)nn5ccccc45)n3)cc2)CC1        < 100 nM
13  O=C(Nc1cccc(-c2nn3ccccc3c2-c2ccnc(Nc3cccc(F)c3)n2)c1)c1c(F)ccc(F)c1Cl  100 to 1000 nM
14  Cc1cc(Nc2nccc(-c3c(-c4cccc(NC(=O)c5c(F)cccc5F)c4)nn4ccccc34)n2)ccc1C#N        < 100 nM
15  O=C(Nc1cccc(-c2nn3ccccc3c2-c2ccnc(Nc3ccc(N4CCOCC4)cc3)n2)c1)c1c(F)cccc1F        < 100 nM
16  O=C(Nc1cccc(-c2nn3ccccc3c2-c2ccnc(Nc3cccc(F)c3)n2)c1)c1cnc2ccccc2n1       > 1000 nM
17  Cc1ccsc1C(=O)Nc1cccc(-c2nn3ccccc3c2-c2ccnc(Nc3cccc(F)c3)n2)c1  100 to 1000 nM
18  N#Cc1cc(Nc2nccc(-c3c(-c4cccc(NC(=O)c5c(F)cccc5F)c4)nn4ccccc34)n2)ccc1F        < 100 nM
19  CN1CCN(c2ccc(Nc3nccc(-c4c(-c5cccc(NC(=O)c6c(F)cccc6F)c5)nn5ccccc45)n3)cc2)CC1        < 100 nM
20  O=C(Nc1cccc(-c2nn3ccccc3c2-c2ccnc(Nc3cccc(F)c3)n2)c1)c1ccc(F)cc1  100 to 1000 nM
21  NS(=O)(=O)c1ccc(Nc2nccc(-c3c(-c4cccc(NC(=O)c5c(F)cccc5F)c4)nn4ccccc34)n2)cc1        < 100 nM
22  O=C(Nc1cccc(-c2nn3ccccc3c2-c2ccnc(Nc3cccc(F)c3)n2)c1)c1ccc(Cl)nc1  100 to 1000 nM
23  Cc1ncoc1-c1cccc(Nc2nccc(-c3c(-c4cccc(NC(=O)c5c(F)cccc5F)c4)nn4ccccc34)n2)c1        < 100 nM
24  O=C(Nc1cccc(-c2nn3ccccc3c2-c2ccnc(Nc3ccc(Cl)cc3)n2)c1)c1c(F)cccc1F  100 to 1000 nM
25  O=C(Nc1cccc(-c2nn3ccccc3c2-c2ccnc(Nc3cccc(-c4cnco4)c3)n2)c1)c1c(F)cccc1F        < 100 nM
26  COc1cccc(Nc2nccc(-c3c(-c4cccc(NC(=O)c5c(F)cccc5F)c4)nn4ccccc34)n2)c1        < 100 nM
27  CN(C)CC(=O)Nc1cccc(Nc2nccc(-c3c(-c4cccc(NC(=O)c5c(F)cccc5F)c4)nn4ccccc34)n2)c1  100 to 1000 nM
